Target: β5 (Homo sapiens, UniProt P20618+P28074)
Construct: endogenous in cells; host or cells: MOLT-4
Test: ProCISE proteasome subunit assay, β5
Format: biochemical
Details: MOLT4 lysate Hu 1 h
pIC50: −log10 of the molar value.
quantity name: pIC50

Examples from the recorded data:
molecule	test system	pIC50
COc1ccc(C[C@H](NC(=O)[C@@H](C)NC(=O)[C@H]2CCc3[nH]ncc3C2)C(=O)N[C@@H](CC2CCCC2)C(=O)[C@@]2(C)CO2)cc1 [Compound C-2065]	β5 (Homo sapiens, UniProt P20618+P28074)	5.18
COc1ccc(C[C@H](NC(=O)[C@@H](C)NC(=O)C2=CCCC2)C(=O)N[C@@H](Cc2ccccc2)C(=O)[C@@]2(C)CO2)cc1 [Compound C-2058]	β5 (Homo sapiens, UniProt P20618+P28074)	5.37
COc1ccc(C[C@H](NC(=O)[C@@H](C)NC(=O)C[C@@H](C)O)C(=O)N[C@@H](CC2CCCC2)C(=O)[C@@]2(C)CO2)cc1 [Compound C-2042]	β5 (Homo sapiens, UniProt P20618+P28074)	5.23
COc1ccc(C[C@H](NC(=O)[C@@H](C)NC(=O)CC(C)(C)O)C(=O)N[C@@H](CC2=CCCC2)C(=O)[C@@]2(C)CO2)cc1O [Compound C-2060]	β5 (Homo sapiens, UniProt P20618+P28074)	6.43
COc1ccc(C[C@H](NC(=O)[C@H](CO)NC(C)=O)C(=O)N[C@@H](Cc2ccccc2)C(=O)[C@@]2(C)CO2)cc1 [Compound C-2007]	β5 (Homo sapiens, UniProt P20618+P28074)	6.32
COc1ccc(C[C@H](NC(=O)[C@@H](NC(=O)OCc2ccccc2)C2COC2)C(=O)N[C@@H](Cc2ccccc2)C(=O)[C@@]2(C)CO2)cc1 [Compound C-2035]	β5 (Homo sapiens, UniProt P20618+P28074)	7.68

a. COCCC(=O)N[C@H](C)C(=O)N[C@@H](Cc1ccc(OC)cc1)C(=O)N[C@@H](CC1CCCC1)C(=O)[C@@]1(C)CO1 [Compound C-2018]
b. COc1ccc(C[C@H](NC(=O)[C@@H](C)NC(=O)c2cccnc2)C(=O)N[C@@H](CC2CCCC2)C(=O)[C@@]2(C)CO2)cc1 [Compound C-2032]
c. CC[C@@](C)(O)CC(=O)N[C@H](C)C(=O)N[C@@H](Cc1ccc(OC)cc1)C(=O)N[C@@H](CC1CCCC1)C(=O)[C@@]1(C)CO1 [Compound C-2052]
d. COc1ccc(C[C@H](NC(=O)[C@H](C)NC(=O)C(F)(F)F)C(=O)N[C@@H](Cc2ccccc2)C(=O)[C@@]2(C)CO2)cc1 [Compound C-2011]
QUERY: Ascending by pIC50, please: list the molecules accordingly. Form entry: ranked labels (order as requested).
RESULT: a, b, c, d

###

Target: β1 (Homo sapiens, UniProt P28072+Q99436)
Assay: ProCISE proteasome subunit assay, β1
Conditions: MOLT-4 lysate, 1 hour at 25° C.
quantity name: IC50 (µM)
Quick note: give the figure in µM, leave out the unit.

QUERY: Recorded IC50 for `COc1ccc(C[C@H](NC(=O)c2cccc(=O)[nH]2)C(=O)N[C@@H](Cc2ccccc2)C(=O)[C@@]2(C)CO2)cc1` , please?
RESULT: 99.2

###

Biological target: c20S (constitutive 20S proteasome) (Homo sapiens, UniProt P20618+P28074)
Experiment: 20S proteasome assay, chymotrypsin-like activity (LLVY), c20S
Assay type: biochemical
Settings: LLVY c20S Hu 1 h CONT: IC50 (nM), succinyl-Leu-Leu-Val-Tyr-AMC
Description: Assay buffer consisted of TE buffer [20 mmol/L Tris (pH 8.0), 0.5 mmol/L EDTA] with (20S) or without (cell lysate) 0.03% SDS. Reactions were initiated by enzyme or lysate addition and monitored for AMC product formation at 27jC with a plate-based spectofluorometer (Tecan).
quantity name: IC50 (nM)

molecule	measurement units	IC50
COc1ccc(C[C@H](NC(=O)[C@@]2(C)CCC(=O)N2)C(=O)N[C@@H](Cc2ccccc2)C(=O)[C@@]2(C)CO2)cc1 [Compound C-3010]	nM	4080

1. COc1ccc(C[C@H](NC(=O)[C@@H](C)NC(=O)c2cc(C)no2)C(=O)N[C@@H](CC2CCCC2)C(=O)[C@@]2(C)CO2)cc1 [Compound C-2023]
2. COc1ccc(C[C@H](NC(=O)[C@H](C)NC(=O)c2cnc(C)s2)C(=O)N[C@@H](CC2CCCC2)C(=O)[C@@]2(C)CO2)cc1 [Compound C-2025]
3. COc1ccc(C[C@H](NC(=O)[C@@H](C)NC(=O)c2ccccn2)C(=O)N[C@@H](CC2CCCC2)C(=O)[C@@]2(C)CO2)cc1 [Compound C-2031]
4. COc1ccc(C[C@H](NC(=O)[C@@H](NC(=O)OCc2ccccc2)C2(O)CC2)C(=O)N[C@@H](Cc2ccccc2)C(=O)[C@@]2(C)CO2)cc1 [Compound C-2046]
5. COc1ccc(C[C@H](NC(=O)[C@H](C)NC(=O)c2cc(C)no2)C(=O)N[C@@H](CC2CCCC2)C(=O)[C@@]2(C)CO2)cc1 [Compound C-2022]
QUERY: Order the records so the highest IC50 appears first and the lowest last. Form entry: ranked labels (order as requested).
RESULT: 3, 1, 2, 5, 4
(3: 18300 nM, 1: 857 nM, 2: 289 nM, 5: 65.3 nM, 4: 7.9 nM)

###

Biological target: LMP2 (Homo sapiens, UniProt P28065+P40306)
Construct: endogenous in cells; host or cells: MOLT-4
Experiment: ProCISE proteasome subunit assay, LMP2
Format: biochemical
Settings: ProCISE LMP2 MOLT4 lysate Hu 1 h CONT: IC50 (nM), MOLT4 lysate Hu 1 h
From the text: This assay was used to assess the inhibitory activity against each of LMP2, LMP7, MECL1, β1, β2, and β5. Briefly, test compounds were serially diluted in DMSO at 100× concentration, then diluted to 10× in aqueous hypotonic lysis buffer. […] A chemiluminescent substrate was used to generate signal associated with HRP binding, which was detected on a plate reader. […]
quantity name: IC50 (nM)

a. COc1ccc(C[C@H](NC(=O)c2cccc(=O)[nH]2)C(=O)N[C@@H](Cc2ccccc2)C(=O)[C@@]2(C)CO2)cc1
b. C[C@]1(C(=O)[C@H](Cc2ccccc2)NC(=O)[C@H](CO)NC(=O)c2cccc(=O)[nH]2)CO1
QUERY: Quick one: lower IC50, a or b ? API: response body contains the label of the selected item.
RESULT: b

###

Experiment: Solubility pH 7
Type: physicochemical
Conditions: pH 7, aqueous buffer
quantity name: solubility (µg/mL)

Examples from the recorded data:
line notation	solubility [µg/mL]
COc1ccc(C[C@H](NC(=O)[C@H](CN2CCOCC2)NC(=O)c2cc(C)no2)C(=O)N[C@@H](CC2CCCC2)C(=O)[C@@]2(C)CO2)cc1	130
COc1ccc(C[C@H](NC(=O)[C@@H](C)NC(=O)C[C@@H](C)O)C(=O)N[C@@H](CC2CCCC2)C(=O)[C@@]2(C)CO2)cc1	1830
COc1ccc(C[C@H](NC(=O)[C@@H](C)NC(=O)c2ccncc2)C(=O)N[C@@H](CC2CCCC2)C(=O)[C@@]2(C)CO2)cc1	165
COc1ccc(C[C@H](NC(=O)[C@@]2(C)CCC(=O)N2)C(=O)N[C@@H](Cc2ccccc2)C(=O)[C@@]2(C)CO2)cc1	1380
COc1ccc(C[C@H](NC(=O)C(C)(C)N)C(=O)N[C@@H](Cc2ccccc2)C(=O)[C@@]2(C)CO2)cc1	385
CC1=C(C(=O)N[C@H](C)C(=O)N[C@@H](Cc2c[nH]c3ccccc23)C(=O)N[C@@H](Cc2ccccc2)C(=O)[C@@]2(C)CO2)Cc2ccccc21	0.7
COc1ccc(C[C@H](NC(=O)[C@@H](C)NC(=O)CC(C)(C)O)C(=O)N[C@@H](CC2=CCCC2)C(=O)[C@@]2(C)CO2)cc1O	3010

a. COc1ccc(C[C@H](NC(=O)[C@@H](C)NC(=O)Cc2cc(C)no2)C(=O)N[C@@H](CC2CCCC2)C(=O)[C@@]2(C)CO2)cc1
b. COc1ccc(C[C@H](NC(=O)[C@H](CO)NC(C)=O)C(=O)N[C@@H](Cc2ccccc2)C(=O)[C@@]2(C)CO2)cc1
QUERY: Which of the two items, a and b , has the greater recorded solubility? API: response body contains the label of the selected item.
RESULT: b

###

Test: Solubility pH 7
Assay type: physicochemical
Settings: pH 7, aqueous buffer
quantity name: solubility (µg/mL)

Examples from the recorded data:
line notation	solubility (µg/mL)
COc1ccc(C[C@H](NC(=O)c2cccc(=O)[nH]2)C(=O)N[C@@H](CC2=CCCC2)C(=O)[C@@]2(C)CO2)cc1	143
COc1ccc(C[C@H](NC(=O)[C@@H](NC(=O)OCc2ccccc2)C2(O)CC2)C(=O)N[C@@H](Cc2ccccc2)C(=O)[C@@]2(C)CO2)cc1	10.7
CCOCC(=O)N[C@@H](C)C(=O)N[C@@H](Cc1ccc(OC)cc1)C(=O)N[C@@H](CC1CCCC1)C(=O)[C@@]1(C)CO1	59.1
COc1ccc(C[C@H](NC(=O)[C@@H](C)NC(=O)c2oncc2C)C(=O)N[C@@H](CC2CCCC2)C(=O)[C@@]2(C)CO2)cc1	44.1

P. C[C@]1(C(=O)[C@H](Cc2ccccc2)NC(=O)[C@H](CO)NC(=O)c2cccc(=O)[nH]2)CO1
Q. COc1ccc(C[C@H](NC(=O)[C@H](C)NC(=O)C2=C(C)c3ccccc3C2)C(=O)N[C@@H](Cc2ccccc2)C(=O)[C@@]2(C)CO2)cc1
QUERY: Which of the two items, P and Q , has the greater recorded solubility? API: response body contains the label of the selected item.
RESULT: P
